test: Cytotoxicity in HepG2.117 cells, ATPlite Luminescence Assay; format: cell-based, human; details: human, incubated for 3 days, mean value, read-out: TOX-HepG2.117 CC50 (μM, mean value)
This listing pairs compounds with measured CC50 at 3 days.

Worked set:
COc1ncc(CN2CCn3nc4c(c3C2=O)CN(C(=O)c2ccc(Cl)c(Cl)c2)[C@H](C)C4)cn1 : > 50 µM
C[C@@H]1Cc2nn3c(c2CN1C(=O)c1ccc(Cl)c(Cl)c1)C(=O)N(Cc1ccc(OC(F)(F)F)cc1)CC3 : 6.96 µM
C[C@@H]1Cc2nn3c(c2CN1C(=O)c1ccc(Cl)c(Cl)c1)C(=O)N(Cc1cn(C2CC2)nn1)CC3 : > 50 µM

Next item in the queue.
CC50 at 3 days reading for C[C@@H]1Cc2nn3c(c2CN1C(=O)c1ccc(Cl)c(Cl)c1)C(=O)N(Cc1nnc(C2CC2)o1)CC3 : > 50 µM

* * *

experiment: Cytotoxicity in HepG2.117 cells, ATPlite Luminescence Assay; type: cell-based, human; conditions: human, incubated for 3 days, mean value, read-out: TOX-HepG2.117 CC50 (μM, mean value)
Listed here are compounds together with their documented CC50 at 3 days.
# number only, unit µM dropped from output

Sample answers from the record:
C[C@@H]1Cc2nn3c(c2CN1C(=O)c1ccc(Cl)c(Cl)c1)C(=O)N(Cc1ccccc1F)CC3 : 26.1
COc1ccc(CN2CCn3nc4c(c3C2=O)CN(C(=O)c2ccc(F)c(C)c2)CC4)cc1 : 20.6
COc1cccc(C(C)N2CCn3nc4c(c3C2=O)CN(C(=O)c2ccc(Cl)c(Cl)c2)[C@H](C)C4)c1 (stereo partly shown) : 19.6

COc1ccc(C(C)N2CCn3nc4c(c3C2=O)CN(C(=O)c2ccc(Cl)c(Cl)c2)[C@H](C)C4)cc1OC (stereo partly shown) yielded CC50 at 3 days of 24.4

Per the records, this compound ( C[C@@H]1Cc2nn3c(c2CN1C(=O)c1ccc(Cl)c(Cl)c1)C(=O)N(Cc1ccccc1OC(F)F)CC3 ) has CC50 at 3 days equal to 22.5

The compound listed as C[C@@H]1Cc2nn3c(c2CN1C(=O)c1ccc(Cl)c(Cl)c1)C(=O)N(Cc1ncccc1C(F)(F)F)CC3 shows CC50 at 3 days equal to 36

Looking up C[C@@H]1Cc2nn3c(c2CN1C(=O)c1ccc(Cl)c(Cl)c1)C(=O)N(Cc1cc(F)ccc1F)CC3 , I found its CC50 at 3 days recorded as 37.5

Briefly, CC50 at 3 days measured for CC(c1ccccc1)N1CCn2nc3c(c2C1=O)CN(C(=O)c1ccc(Cl)c(Cl)c1)[C@H](C)C3 (stereo partly shown) : 30

GET /value?item= C[C@@H]1Cc2nn3c(c2CN1C(=O)c1ccc(Cl)c(Cl)c1)C(=O)N(Cc1cc(F)cc(F)c1)CC3 &field=CC50 at 3 days returns 38

CC50 at 3 days reading for C[C@@H]1Cc2nn3c(c2CN1C(=O)c1cc2c(Cl)c(Cl)ccc2[nH]1)C(=O)N(Cc1ccccn1)CC3 : 4.77

* * *

The following molecules are listed with their measured CC50 at 3 days values.
assay: Cytotoxicity in HepG2.117 cells, ATPlite Luminescence Assay; format: cell-based, human; settings: human, incubated for 3 days, mean value, read-out: TOX-HepG2.117 CC50 (μM, mean value)

O=C(c1ccc(Cl)c(Cl)c1)N1CCc2nn3c(c2C1)C(=O)N(Cc1ccc(OC(F)F)cc1)CC3 [Compound 10] : 7.26 µM
C[C@@H]1Cc2nn3c(c2CN1C(=O)c1ccc(Cl)c(Cl)c1)C(=O)N(Cc1cccc(C(F)(F)F)n1)CC3 [Example C213] : 37.5 µM

The molecule listed as C[C@@H]1Cc2nn3c(c2CN1C(=O)c1ccc(Cl)c(Cl)c1)C(=O)N(Cc1cn(C)cn1)CC3 [Example C202] has a reported CC50 at 3 days of > 50 µM

Field CC50 at 3 days (entry C[C@@H]1Cc2nn3c(c2CN1C(=O)c1cc2c(Cl)c(F)ccc2[nH]1)C(=O)N(Cc1ccccn1)CC3 [Example C102] ) reads 7.14 µM

CC50 at 3 days measured on Cc1c(F)ccc2[nH]c(C(=O)N3Cc4c(nn5c4C(=O)N(Cc4ccccn4)CC5)C[C@H]3C)cc12 [Example C107] = 13.2 µM

Looking up CC(c1cc(F)ccc1F)N1CCn2nc3c(c2C1=O)CN(C(=O)c1ccc(Cl)c(Cl)c1)[C@H](C)C3 (stereo partly drawn) [Example C189] , I see its CC50 at 3 days listed as 41.8 µM

Summary for this molecule, O=C(c1ccc(Cl)c(Cl)c1)N1CCc2nn3c(c2C1)C(=O)N(Cc1ccccc1)CC3 [Compound 3] : CC50 at 3 days is 25.3 µM

// CC50 at 3 days value for CC(c1ccc(F)c(F)c1)N1CCn2nc3c(c2C1=O)CN(C(=O)c1ccc(Cl)c(Cl)c1)[C@H](C)C3 (stereo partly drawn) [Example C186] : 21.6 µM

Please fill in: CC50 at 3 days reported for CC(c1nnnn1C)N1CCn2nc3c(c2C1=O)CN(C(=O)c1ccc(Cl)c(Cl)c1)[C@H](C)C3 (stereo partly drawn) [Example C247] = > 50 µM

Recorded CC50 at 3 days (molecule C[C@@H]1Cc2nn3c(c2CN1C(=O)c1ccc(Cl)c(Cl)c1)C(=O)N(Cc1ccccc1OC(F)(F)F)CC3 [Example C174] ): 15.3 µM

The reported CC50 at 3 days of the molecule C[C@@H]1Cc2nn3c(c2CN1C(=O)c1ccc(Cl)c(Cl)c1)C(=O)N(Cc1ccc(C#N)cc1)CC3 [Example C82] was 32.5 µM

C[C@@H]1Cc2nn3c(c2CN1C(=O)c1ccc(Cl)c(Cl)c1)C(=O)N(Cc1ccnc(F)c1)CC3 [Example C210] yielded CC50 at 3 days of > 50 µM

Value of CC50 at 3 days reported for the molecule C[C@@H]1Cc2nn3c(c2CN1C(=O)c1cc2c(F)cc(F)cc2[nH]1)C(=O)N(Cc1ccccn1)CC3 [Example C110] is 16 µM

Data point: CCCn1c(C)nnc1CN1CCn2nc3c(c2C1=O)CN(C(=O)c1ccc(Cl)c(Cl)c1)[C@H](C)C3 [Example C134] ; CC50 at 3 days = > 50 µM

For reference, reported CC50 at 3 days for COc1ccc(CN2CCn3nc4c(c3C2=O)CN(C(=O)c2ccc(Cl)c(C(F)F)c2)CC4)cc1 [Example C57] stands at 18.9 µM
